Test system: T1, A beta oligomer (synthetic A beta1-40, HCl form, 0.1 mg/ml in PBS, incubated at 37 degrees C for one hour) (UniProt P05067 672-711)
T1 construct: domain: A beta1-40; non-fibrous multimer of the peptide; also called A beta 1-40 oligomer
Assay remarks: SPR (Biacore 3000)
Endpoint label: pKd
Reminder that pKd is minus the log10 of a molar concentration.

So what does the record say about pKd for IR-107 antibody (antibody, mouse IgG2b, V domains shown, mouse IgG2b) VH: DVQLVESGGGLVQPGGSRKLSCAASGFTFSSFGMHWVRQAPEKGLEWVAYISSGSSTIYYADTVKGRFTISRDNPKNTLFLQMTSLRSEDTAMYYCARYGYAMDYWGQGTSVTVSS VL: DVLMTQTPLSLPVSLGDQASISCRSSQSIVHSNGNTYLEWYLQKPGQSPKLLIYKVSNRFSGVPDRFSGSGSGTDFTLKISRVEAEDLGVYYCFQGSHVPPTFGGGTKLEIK ? 6.47
